meta.source: patent US6878716B1

# measured-target: human adenosine A1 receptor (Homo sapiens)
# Sequence (P30542 1-326): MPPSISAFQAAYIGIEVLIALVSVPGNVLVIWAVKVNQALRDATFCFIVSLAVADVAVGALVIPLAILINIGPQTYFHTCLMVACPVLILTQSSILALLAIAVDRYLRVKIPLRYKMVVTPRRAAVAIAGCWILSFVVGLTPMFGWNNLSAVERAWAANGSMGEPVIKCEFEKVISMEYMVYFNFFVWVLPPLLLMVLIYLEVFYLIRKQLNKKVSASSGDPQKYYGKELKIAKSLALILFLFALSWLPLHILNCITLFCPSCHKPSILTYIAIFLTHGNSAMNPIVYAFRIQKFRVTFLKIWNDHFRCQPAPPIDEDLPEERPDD
# assay-notes: Yeast β-Galactosidase reporter gene assay, inhibition of NECA-induced activity (strain CY12660)
# condition-notes: read-out: A1 Yeast IC50; Table 10
assay-metric: IC50

- Cc1[nH]c2nc(-c3ccccc3)nc(NCCNS(C)(=O)=O)c2c1C: > 10 µM
- Cc1[nH]c2nc(-c3ccccc3)nc(NCCNC(=O)CCN)c2c1C: > 10 µM
